src = patent US20170087174A1

# measurementProtocol: Phase-1 drug-drug interaction study in healthy volunteers (Compound (III) 800 mg, SMV 150 mg, Odalasvir 150 mg loading then 50 mg, once daily): plasma PK
# Type: in vivo, human
# statedConditions: both sexes, human, in vivo, Group 1, Day 23 (Compound (III) + SMV + ODV); read-out: Cmax
propertyMeasured: Cmax (ng/mL)
Numbers only, in ng/mL.

## Input Please look up its Cmax: CC(C)OC(=O)[C@H](C)N[P@](=O)(OC[C@@]1(F)O[C@@H](n2ccc(=O)[nH]c2=O)[C@](C)(O)[C@@H]1O)Oc1ccccc1
## Output 747

----------
# measurementProtocol: Phase-1 drug-drug interaction study in healthy volunteers (Compound (III) 800 mg, SMV 150 mg, Odalasvir 150 mg loading then 50 mg, once daily): plasma PK
# Format: in vivo, human
# statedConditions: both sexes, human, in vivo, Group 2, Day 3 (Compound (III) alone); read-out: Cmax
propertyMeasured: Cmax

## Input Please look up its Cmax: CC(C)OC(=O)[C@H](C)N[P@](=O)(OC[C@@]1(F)O[C@@H](n2ccc(=O)[nH]c2=O)[C@](C)(O)[C@@H]1O)Oc1ccccc1
## Output 151 ng/mL

----------
# measurementProtocol: Phase-1 drug-drug interaction study in healthy volunteers (Compound (III) 800 mg, SMV 150 mg, Odalasvir 150 mg loading then 50 mg, once daily): plasma PK
# Format: in vivo, human
# statedConditions: both sexes, human, plasma, oral, Group 1, Day 20 (ODV + SMV); read-out: Cmax
# Source text: The following daily doses were employed:
propertyMeasured: Cmax (ng/mL)
Give bare numbers, in ng/mL.

## Input Please look up its Cmax: COC(=O)N[C@H](C(=O)N1[C@H](c2nc3cc(-c4cc5ccc4CCc4ccc(c(-c6ccc7[nH]c([C@@H]8C[C@@H]9CCCC[C@@H]9N8C(=O)[C@@H](NC(=O)OC)C(C)C)nc7c6)c4)CC5)ccc3[nH]2)C[C@@H]2CCCC[C@@H]21)C(C)C
## Output 649

----------
# measurementProtocol: PK of single agents vs fixed dose combinations (FDC), single oral dose in healthy volunteers
# Type: in vivo, human
# statedConditions: human, in vivo, Arm 3: FDC04; read-out: AUClast (mean ± SD)
propertyMeasured: AUC(0-t) (ng·h/mL)
Give bare numbers, in ng·h/mL.

## Input Please look up its AUC(0-t): CC(C)OC(=O)[C@H](C)N[P@](=O)(OC[C@@]1(F)O[C@@H](n2ccc(=O)[nH]c2=O)[C@](C)(O)[C@@H]1O)Oc1ccccc1
## Output 1440

----------
# measurementProtocol: PK of single agents vs fixed dose combinations (FDC), single oral dose in healthy volunteers
# Type: in vivo, human
# statedConditions: Arm 2: FDC02
# t1/2term (mean ± SD) >= 9 h gives Condition met, anything below gives Condition not met

Observe how each entry below is paired with its result.
{"columns": ["molecule", "qualitativeLabel"],
 "data": [
  ["C[C@H](NP(=O)(O)OC[C@@]1(F)O[C@@H](n2ccc(=O)[nH]c2=O)[C@](C)(O)[C@@H]1O)C(=O)O [Compound A-3]", "Condition not met"],
  ["C[C@]1(O)[C@H](n2ccc(=O)[nH]c2=O)O[C@](F)(CO)[C@H]1O [Compound A-1]", "Condition met"],
  ["COc1ccc2c(O[C@@H]3C[C@H]4C(=O)N[C@]5(C(=O)NS(=O)(=O)C6CC6)C[C@H]5/C=C\\CCCCN(C)C(=O)[C@@H]4C3)cc(-c3nc(C(C)C)cs3)nc2c1C [SMV, Simeprevir, reference compound]", "Condition not met"],
  ["COC(=O)N[C@H](C(=O)N1[C@H](c2nc3cc(-c4cc5ccc4CCc4ccc(c(-c6ccc7[nH]c([C@@H]8C[C@@H]9CCCC[C@@H]9N8C(=O)[C@@H](NC(=O)OC)C(C)C)nc7c6)c4)CC5)ccc3[nH]2)C[C@@H]2CCCC[C@@H]21)C(C)C [ODV, Odalasvir]", "Condition met"]
]}

Continue with the next molecule.
## Input Is t1/2term (mean ± SD) at least 9 h? Consider CC(C)OC(=O)[C@H](C)N[P@](=O)(OC[C@@]1(F)O[C@@H](n2ccc(=O)[nH]c2=O)[C@](C)(O)[C@@H]1O)Oc1ccccc1 [Compound (III)]
## Output Condition not met
